System: rainbow trout (Oncorhynchus mykiss)
Method Notes: Contribution of tissues to fish body burden
Type: in vivo
Stated Conditions: mean across fish, Figure 1
Would you mind telling me the reported % contribution to body burden, Mucus of each entry?
Numbers only, in %.

Below are worked cases with known answers.
Structure Notation | Unit Tag | Readout Value
CCCCCCCCCN | % | 30
CCCCCCCCCCCCCN(C)C | % | 9

Q: What does the data say about its % contribution to body burden, Mucus? Entry: CCCCCCCCCCCCCN
Ans: 10

###

Test system: rainbow trout (Oncorhynchus mykiss)
Method Notes: Contribution of tissues to fish body burden
Assay type: in vivo
Stated Conditions: fraction, Fish #2
Measure: Contribution of Liver to the fish's body burden
One number for each entry.

Structure Notation | Tested System | Readout Value
CCCCCCCCCCCCN | rainbow trout (Oncorhynchus mykiss) | 0.22
CCCCCCCCCCCCCN(C)C | rainbow trout (Oncorhynchus mykiss) | 0.09

Here are 3 compounds. What values of Contribution of Liver to the fish's body burden were reported for them?
1. CCCCCCCCCCCCCCCCN
2. CCCCCCCCCCCCCN
3. CCCCCCCCCN

Ans:
1. 0.14
2. 0.23
3. 0.20
